# studySystem: T1, recombinant rat MASP1 active protease (amino acids 302-704, C-terminal His Tag) (rat, UniProt Q8CHN8 302-704)
# T1 sequence: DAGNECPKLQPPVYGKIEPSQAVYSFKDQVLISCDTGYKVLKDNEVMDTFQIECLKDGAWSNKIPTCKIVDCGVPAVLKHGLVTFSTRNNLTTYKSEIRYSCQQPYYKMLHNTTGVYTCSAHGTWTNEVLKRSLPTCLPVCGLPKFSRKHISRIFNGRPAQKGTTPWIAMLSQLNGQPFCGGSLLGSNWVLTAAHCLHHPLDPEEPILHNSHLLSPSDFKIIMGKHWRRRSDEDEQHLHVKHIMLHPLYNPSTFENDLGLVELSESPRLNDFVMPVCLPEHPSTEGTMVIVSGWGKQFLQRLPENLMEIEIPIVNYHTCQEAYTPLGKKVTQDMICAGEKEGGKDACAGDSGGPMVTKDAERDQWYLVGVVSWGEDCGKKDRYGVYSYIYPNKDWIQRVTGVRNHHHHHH
# assayRemarks: cell-based or functional assay
Bridge positions count the residues as written; N and C are the ends. Square brackets hold non-standard residues; d marks the D form. Ends that are not written are not given here. tBuAla = CC(C)(C)C[C@H](N)C(=O)O; NMeC = CN[C@@H](CS)C(=O)O
reportedProperty: rat MASP1 IC50
Hi, when you answer, please include the unit after the number. Thanks!

Exam item: // fetch rat MASP1 IC50 given entry RICSRS[tBuAla]PPI[NMeC]IPD-NH2 (disulfide 3-11; N-terminus assumed; SMILES CC[C@H](C)[C@H](NC(=O)[C@@H](N)CCCNC(=N)N)C(=O)N[C@H]1CSSC[C@@H](C(=O)N[C@H](C(=O)N2CCC[C@H]2C(=O)N[C@@H](CC(=O)O)C(N)=O)[C@@H](C)CC)N(C)C(=O)[C@H]([C@@H](C)CC)NC(=O)[C@@H]2CCCN2C(=O)[C@@H]2CCCN2C(=O)[C@H](CC(C)(C)C)NC(=O)[C@H](CO)NC(=O)[C@H](CCCNC(=N)N)NC(=O)[C@H](CO)NC1=O) [Example 19: RIC+SRS-((tBu)A)-PPI-((N-Me)C)+IPD-NH2]
Marked response: 23 nM
